So I've got AC50 readings for UniProtKB P11712, take a look.
Sequence (P11712 whole entry): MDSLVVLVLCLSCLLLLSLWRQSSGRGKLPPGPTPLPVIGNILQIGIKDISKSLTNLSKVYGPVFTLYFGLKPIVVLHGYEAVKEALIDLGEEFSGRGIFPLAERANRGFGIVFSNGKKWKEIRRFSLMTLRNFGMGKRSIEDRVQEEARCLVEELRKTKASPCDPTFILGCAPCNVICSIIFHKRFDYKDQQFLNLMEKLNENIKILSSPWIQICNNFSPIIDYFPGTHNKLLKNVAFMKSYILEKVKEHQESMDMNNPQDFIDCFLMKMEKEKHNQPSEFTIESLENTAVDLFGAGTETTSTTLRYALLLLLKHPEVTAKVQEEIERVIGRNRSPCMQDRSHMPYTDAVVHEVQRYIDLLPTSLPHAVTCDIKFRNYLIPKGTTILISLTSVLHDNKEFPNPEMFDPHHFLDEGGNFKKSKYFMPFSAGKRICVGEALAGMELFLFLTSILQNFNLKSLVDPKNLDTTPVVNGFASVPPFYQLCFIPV

See these solved cases before continuing.
compound	measuredAttribute	val
COCCn1c(=O)c(-c2cccc(C#N)c2)nc2cnc(N3CCOCC3)nc21	AC50	12.6 µM (inconclusive)
Cc1ccc(CNC(=O)c2nnn(-c3cccc(C)c3)c2N)cc1	AC50	39.8 µM (inconclusive)
O=C(NCCNS(=O)(=O)c1ccc(Cl)cc1)c1cc(OCC(F)(F)F)ccc1OCC(F)(F)F	AC50	0.0251 µM (inconclusive)
COc1ccc(NC(=O)COC(=O)c2c(-c3ccccc3)noc2C)cc1	AC50	20 µM (inconclusive)
O=S(=O)(c1ccccc1)N1CCC[C@@]2(CCN(C(c3ccccc3)c3ccccc3)C2)C1	AC50	10 µM (inconclusive)
CC(Oc1ccc(-c2ccccc2)cc1)C(=O)O (stereo not given)	AC50	39.8 µM (inconclusive)
CCN(CC)CCNC(=O)c1ccc(Cl)c(S(=O)(=O)Nc2ccccc2OC)c1	AC50	12.6 µM (inconclusive)
O=C(O)c1cc(/N=N\c2ccc(S(=O)(=O)Nc3ccccn3)cc2)ccc1O	AC50	7.94 µM (inconclusive)

What value of AC50 on UniProtKB P11712 does "CCNc1ncc2nc(-c3cccs3)c(=O)n(Cc3cccs3)c2n1" have?
39.8 µM (inconclusive)

// lookup AC50 | system=UniProtKB P11712 | key= "COc1ccccc1CNc1ncnc2ccc(-c3ccc4c(c3)OCO4)cc12"
0.398 µM (inconclusive)

Under UniProtKB P11712: AC50 value of "COc1ccc(-n2c(=O)c(-c3ccccc3)nc3cnc(N4CCN(C)CC4)nc32)cc1" ?
31.6 µM (inconclusive)

----------
biological target: Nonstructural protein 1 (Influenza A virus); assay type: functional, Influenza A virus (A/California/07/2009(H1N1))
Sequence (Q194T2 whole entry): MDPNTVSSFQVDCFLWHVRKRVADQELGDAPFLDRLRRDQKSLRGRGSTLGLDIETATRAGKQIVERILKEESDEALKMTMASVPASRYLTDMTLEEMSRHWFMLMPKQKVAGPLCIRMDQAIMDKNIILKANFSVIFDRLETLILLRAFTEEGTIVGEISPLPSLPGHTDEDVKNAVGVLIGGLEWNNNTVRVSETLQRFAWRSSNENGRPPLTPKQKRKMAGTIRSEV
The source made the active and inactive calls.
measuredAttribute: IC50

chemicalString	IC50
CC(=O)Nc1ccc(C(=O)Nc2nc(-c3ccccn3)cs2)cc1	7.8 µM (active)
COc1ccc(C2=NN(c3ccccc3)C(=O)/C2=C\c2ccc(O)c(OC)c2)cc1	42.4 µM (active)

Could you tell me which IC50 is on file for "CC(=NNC(=S)N1CCN(c2ccccn2)CC1)c1nccs1" ?
3.38 µM (active)

----------
biological target: Fatty acid synthase (Homo sapiens, UniProt P49327); assay: inhibition of human FAS-TE enzyme activity – biochemical, kinetic fluorescence intensity, dose response (AID 624326); assay type: functional;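 also: rate of fluorescence rise from hydrolysis of a fluorogenic O-methyl fluorescein ester substrate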
Sequence (P49327 whole entry): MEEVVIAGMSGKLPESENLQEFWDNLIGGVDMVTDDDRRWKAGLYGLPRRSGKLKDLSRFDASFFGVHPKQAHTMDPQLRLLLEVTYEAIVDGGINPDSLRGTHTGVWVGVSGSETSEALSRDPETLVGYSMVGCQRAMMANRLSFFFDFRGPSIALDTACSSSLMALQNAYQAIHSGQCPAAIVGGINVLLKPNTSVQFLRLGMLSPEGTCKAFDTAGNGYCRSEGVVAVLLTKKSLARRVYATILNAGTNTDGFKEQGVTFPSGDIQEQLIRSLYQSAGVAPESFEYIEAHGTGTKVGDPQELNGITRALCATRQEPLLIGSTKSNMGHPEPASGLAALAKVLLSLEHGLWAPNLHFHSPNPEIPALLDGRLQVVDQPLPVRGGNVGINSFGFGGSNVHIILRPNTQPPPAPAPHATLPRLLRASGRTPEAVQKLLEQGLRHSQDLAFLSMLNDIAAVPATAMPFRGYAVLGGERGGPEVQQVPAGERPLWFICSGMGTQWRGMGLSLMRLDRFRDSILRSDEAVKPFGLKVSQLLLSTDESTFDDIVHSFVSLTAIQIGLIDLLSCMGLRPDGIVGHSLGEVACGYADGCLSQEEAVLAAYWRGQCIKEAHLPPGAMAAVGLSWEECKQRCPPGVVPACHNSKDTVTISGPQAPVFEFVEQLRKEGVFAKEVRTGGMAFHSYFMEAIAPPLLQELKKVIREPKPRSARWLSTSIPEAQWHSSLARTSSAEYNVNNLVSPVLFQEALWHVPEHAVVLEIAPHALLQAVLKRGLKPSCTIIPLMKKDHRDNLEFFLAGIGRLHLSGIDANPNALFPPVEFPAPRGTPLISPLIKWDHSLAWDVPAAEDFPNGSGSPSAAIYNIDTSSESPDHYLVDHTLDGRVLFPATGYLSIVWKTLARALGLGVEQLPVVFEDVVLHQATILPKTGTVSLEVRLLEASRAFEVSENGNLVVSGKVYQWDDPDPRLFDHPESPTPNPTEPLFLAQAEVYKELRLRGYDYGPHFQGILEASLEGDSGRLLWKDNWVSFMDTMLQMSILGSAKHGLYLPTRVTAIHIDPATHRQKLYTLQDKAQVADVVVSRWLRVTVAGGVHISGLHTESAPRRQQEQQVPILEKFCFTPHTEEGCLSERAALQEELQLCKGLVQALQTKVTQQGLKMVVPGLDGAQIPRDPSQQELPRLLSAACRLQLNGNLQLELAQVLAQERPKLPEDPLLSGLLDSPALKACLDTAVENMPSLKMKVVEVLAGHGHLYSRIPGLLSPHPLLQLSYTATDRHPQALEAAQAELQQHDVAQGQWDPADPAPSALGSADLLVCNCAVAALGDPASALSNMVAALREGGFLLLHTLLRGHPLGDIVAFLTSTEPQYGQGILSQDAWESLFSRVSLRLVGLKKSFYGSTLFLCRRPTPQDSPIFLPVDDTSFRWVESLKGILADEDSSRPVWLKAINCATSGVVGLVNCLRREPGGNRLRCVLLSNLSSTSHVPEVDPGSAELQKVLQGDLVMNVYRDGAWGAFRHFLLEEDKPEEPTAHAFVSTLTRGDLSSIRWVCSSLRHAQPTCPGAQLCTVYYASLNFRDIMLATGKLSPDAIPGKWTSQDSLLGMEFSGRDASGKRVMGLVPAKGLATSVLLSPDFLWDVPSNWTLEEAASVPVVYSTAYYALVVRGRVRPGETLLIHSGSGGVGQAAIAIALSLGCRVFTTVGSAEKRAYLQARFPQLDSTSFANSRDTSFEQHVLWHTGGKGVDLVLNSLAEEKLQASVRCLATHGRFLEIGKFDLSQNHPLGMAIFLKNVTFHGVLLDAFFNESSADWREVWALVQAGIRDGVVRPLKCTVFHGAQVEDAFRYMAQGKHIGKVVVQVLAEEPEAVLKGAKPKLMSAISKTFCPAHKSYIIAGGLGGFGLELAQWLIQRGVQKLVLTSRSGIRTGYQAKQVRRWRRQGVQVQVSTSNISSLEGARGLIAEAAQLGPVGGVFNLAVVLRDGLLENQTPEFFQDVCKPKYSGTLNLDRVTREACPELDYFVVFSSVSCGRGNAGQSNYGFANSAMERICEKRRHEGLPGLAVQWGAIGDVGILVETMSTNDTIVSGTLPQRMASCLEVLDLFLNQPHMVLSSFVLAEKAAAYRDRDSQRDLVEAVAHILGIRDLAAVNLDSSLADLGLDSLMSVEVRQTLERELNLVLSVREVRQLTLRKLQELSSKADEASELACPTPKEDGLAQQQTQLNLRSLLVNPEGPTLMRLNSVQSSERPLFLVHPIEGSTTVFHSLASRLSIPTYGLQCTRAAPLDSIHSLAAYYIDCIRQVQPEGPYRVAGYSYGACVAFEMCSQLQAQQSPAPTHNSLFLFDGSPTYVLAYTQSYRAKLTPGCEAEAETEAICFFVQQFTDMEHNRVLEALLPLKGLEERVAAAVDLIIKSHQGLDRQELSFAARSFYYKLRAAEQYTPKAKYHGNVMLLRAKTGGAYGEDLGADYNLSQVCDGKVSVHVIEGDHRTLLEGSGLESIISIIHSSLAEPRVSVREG
Calls of active or inactive are those of the source.
Listing of recorded IC50 by entry.

Consider the following illustrative entries.
compound	IC50
COc1cccc(NC(=O)CN2C(=O)COc3ccc(S(=O)(=O)N4CCC(C)CC4)cc32)c1	6.57 µM (active)
O=S(=O)(c1ccc(-c2csc(-c3cccnc3)n2)cc1)N1CCCCC1	3.65 µM (active)
CCn1cc(C(=O)NCc2ccco2)c(=O)c2cc(S(=O)(=O)N3CCCCCC3)ccc21	2.32 µM (active)

Find the measured IC50: item "O=[N+]([O-])c1ccc(Sc2nc3ccccc3o2)c([N+](=O)[O-])c1" , target or system Fatty acid synthase (Homo sapiens, UniProt P49327).
10.1 µM (active)

Any idea what IC50 came out for O=C(CC1C[C@H](C(=O)N2CCOCC2)[C@@]2(CCC3CCCC3)c3[nH]c4ccccc4c3CCN2C1=O)NCCCn1ccnc1 (stereo not given in full) on Fatty acid synthase (Homo sapiens, UniProt P49327)?
2.7 µM (active)
